Target: PRMT5/MEP50-MTA protein complex (Homo sapiens)
Construct: purchased Viva Biotech
Sequence (O14744 whole entry): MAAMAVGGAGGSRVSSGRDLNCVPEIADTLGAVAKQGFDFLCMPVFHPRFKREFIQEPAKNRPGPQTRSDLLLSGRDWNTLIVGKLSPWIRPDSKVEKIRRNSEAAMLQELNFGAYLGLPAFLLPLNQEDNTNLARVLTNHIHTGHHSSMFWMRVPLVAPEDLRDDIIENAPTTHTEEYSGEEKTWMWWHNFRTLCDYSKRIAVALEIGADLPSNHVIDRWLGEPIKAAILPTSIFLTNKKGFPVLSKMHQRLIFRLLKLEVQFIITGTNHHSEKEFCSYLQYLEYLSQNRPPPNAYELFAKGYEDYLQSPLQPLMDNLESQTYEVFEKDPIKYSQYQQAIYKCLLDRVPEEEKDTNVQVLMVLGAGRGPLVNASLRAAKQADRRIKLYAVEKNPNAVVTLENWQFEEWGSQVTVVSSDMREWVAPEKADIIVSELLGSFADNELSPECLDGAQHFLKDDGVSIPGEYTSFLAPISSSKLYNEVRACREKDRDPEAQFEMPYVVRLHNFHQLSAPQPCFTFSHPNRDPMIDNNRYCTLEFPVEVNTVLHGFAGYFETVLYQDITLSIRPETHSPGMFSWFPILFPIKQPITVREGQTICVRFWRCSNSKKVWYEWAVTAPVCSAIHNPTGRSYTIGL
Sequence (Q9BQA1 whole entry partner): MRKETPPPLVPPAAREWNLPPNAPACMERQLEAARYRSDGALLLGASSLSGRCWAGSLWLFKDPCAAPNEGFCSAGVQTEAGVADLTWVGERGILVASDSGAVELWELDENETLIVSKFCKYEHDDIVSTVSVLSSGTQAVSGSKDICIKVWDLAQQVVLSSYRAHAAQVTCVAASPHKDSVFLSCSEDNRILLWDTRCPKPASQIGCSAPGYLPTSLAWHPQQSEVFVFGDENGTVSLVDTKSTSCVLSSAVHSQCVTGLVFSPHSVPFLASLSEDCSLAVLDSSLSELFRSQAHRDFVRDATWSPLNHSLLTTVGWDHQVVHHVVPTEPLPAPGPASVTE
Experiment: Thermal shift assay: thermal stability (melting temperature) of PRMT5/MEP50-MTA protein complex
Format: binding
Details: final compound concentration 8 µM; 2 µM PRMT5/MEP50, 2 µM MTA; Tm minus Tm of DMSO vehicle control

>  <compound>
Cn1ncc2c(N)nc3cc4c(cc3c21)C(=O)N(Cc1ccc(C(F)(F)F)cn1)CCCOC4

>  <unit_of_measure>
°C

>  <ΔTm at 8 µM>
12.2

$$$$
>  <compound>
C[C@H]1CCCN(Cc2ccc(C(F)(F)F)cn2)C(=O)c2cc3c(cc2C1)nc(N)c1cncn13 [Example 514-P2]

>  <unit_of_measure>
°C

>  <ΔTm at 8 µM>
11.6

$$$$
>  <compound>
C[C@H]1OCc2c1c(N)nc1cc3c(cc21)C(=O)N(Cc1ccc(S(F)(F)(F)(F)F)cn1)CCCOC3 [Example 437-P1]

>  <unit_of_measure>
°C

>  <ΔTm at 8 µM>
12.6

$$$$
>  <compound>
CC1OCc2c1c(N)nc1cc3c(cc21)C(=O)N(Cc1ccc(S(F)(F)(F)(F)F)cn1)CCCOC3 (racemic)

>  <unit_of_measure>
°C

>  <ΔTm at 8 µM>
12.2

$$$$
>  <compound>
Nc1nc2cc3c(cc2c2c1COC2)C(=O)N(Cc1ccc(S(F)(F)(F)(F)F)cn1)CCCOC3

>  <unit_of_measure>
°C

>  <ΔTm at 8 µM>
12.2

$$$$
>  <compound>
Nc1nc2cc3c(cc2n2cncc12)C(=O)N(Cc1ccc(C(F)(F)F)cn1)CCCOC3

>  <unit_of_measure>
°C

>  <ΔTm at 8 µM>
11.5

$$$$
>  <compound>
Nc1nc2cc3c(cc2n2cncc12)C(=O)N(C1COc2cc(C(F)(F)F)ccc21)CCC/C=C\3 (racemic)

>  <unit_of_measure>
°C

>  <ΔTm at 8 µM>
11.2

$$$$
>  <compound>
Nc1nc2cc3c(cc2n2cncc12)C(=O)N(C1COCc2nc(C(F)(F)F)ccc21)CC/C=C\3 (racemic) [Example 311]

>  <unit_of_measure>
°C

>  <ΔTm at 8 µM>
11.1

$$$$
>  <compound>
Nc1nc2cc3c(cc2c2c1COC2)C(=O)N(Cc1ccc(C(F)(F)F)cn1)CCC/C=C\3

>  <unit_of_measure>
°C

>  <ΔTm at 8 µM>
11.6

$$$$
>  <compound>
Nc1nc2cc3c(cc2c2c1COC2)C(=O)N(C1COCc2nc(C(F)(F)F)ccc21)CCC/C=C\3 (single isomer, unassigned) [Example 165-P1]

>  <unit_of_measure>
°C

>  <ΔTm at 8 µM>
11.9

$$$$
>  <compound>
Nc1nc2cc3c(cc2n2cncc12)C(=O)N(C1COCc2nc(C(F)(F)F)ccc21)CCCCC3 (stereo not shown)

>  <unit_of_measure>
°C

>  <ΔTm at 8 µM>
10.5

$$$$
>  <compound>
Nc1nc2cc3c(cc2n2cncc12)C(=O)N(C1COCc2nc(C(F)(F)F)ccc21)CCCCOC3 (stereo not shown)

>  <unit_of_measure>
°C

>  <ΔTm at 8 µM>
10.9

$$$$
>  <compound>
Nc1nc2cc3c(cc2n2cncc12)C(=O)N([C@@H]1COCc2nc(C(F)(F)F)ccc21)CC/C=C\3 (single isomer, unassigned) [Example 311-P1]

>  <unit_of_measure>
°C

>  <ΔTm at 8 µM>
10.9

$$$$
>  <compound>
Nc1nc2cc3c(cc2c2c1COC2)C(=O)N(Cc1ccc(-c2c(F)cccc2F)cn1)CCCOC3

>  <unit_of_measure>
°C

>  <ΔTm at 8 µM>
12.3

$$$$
>  <compound>
CC1CCN(Cc2ccc(C(F)(F)F)cn2)C(=O)c2cc3c(cc2CO1)nc(N)c1cncn13 (stereo not shown)

>  <unit_of_measure>
°C

>  <ΔTm at 8 µM>
11.2

$$$$
>  <compound>
CC(c1ccc(C(F)(F)F)cn1)N1CC/C=C\c2cc3nc(N)c4cncn4c3cc2C1=O (single isomer, unassigned) [Example 313-P1]

>  <unit_of_measure>
°C

>  <ΔTm at 8 µM>
11.1

$$$$
>  <compound>
Nc1nc2cc3c(cc2n2cncc12)C(=O)N(Cc1ccc(C(F)(F)F)cn1)CC/C=C\3

>  <unit_of_measure>
°C

>  <ΔTm at 8 µM>
12.4

$$$$
>  <compound>
Nc1nc2cc3c(cc2n2cncc12)C(=O)N(C1COCc2nc(C(F)(F)F)ccc21)CCCC/C=C\3 (single isomer, unassigned) [Example 62-P1]

>  <unit_of_measure>
°C

>  <ΔTm at 8 µM>
10.8

$$$$
>  <compound>
C[C@@H]1CCN([C@@H]2COCc3nc(C(F)(F)F)ccc32)C(=O)c2cc3c(cc2CO1)nc(N)c1cncn13 [Example 15-P1]

>  <unit_of_measure>
°C

>  <ΔTm at 8 µM>
10.1

$$$$
>  <compound>
Nc1nc2cc3c(cc2n2cncc12)C(=O)N(Cc1ccc(C(F)(F)F)cn1)CCCCOC3

>  <unit_of_measure>
°C

>  <ΔTm at 8 µM>
11.1

$$$$
>  <compound>
Nc1nc2cc3c(cc2n2cncc12)C(=O)N(Cc1ccc(C(F)(F)F)nn1)CC/C=C\3

>  <unit_of_measure>
°C

>  <ΔTm at 8 µM>
11.5

$$$$
>  <compound>
Nc1nc2cc3c(cc2n2cncc12)C(=O)N(C1COCc2nc(C(F)(F)F)ccc21)CC/C=C\3 (stereo not shown) [Example 157]

>  <unit_of_measure>
°C

>  <ΔTm at 8 µM>
11.1

$$$$
>  <compound>
Cn1ncc2c(N)nc3cc4c(cc3c21)C(=O)N(C1COc2cc(C(F)(F)F)ccc21)CCCOC4 (stereo not shown)

>  <unit_of_measure>
°C

>  <ΔTm at 8 µM>
10.8

$$$$
>  <compound>
Nc1nc2cc3c(cc2c2c1COC2)C(=O)N(Cc1ccc(C24CC(C2)C4)cn1)CCCOC3

>  <unit_of_measure>
°C

>  <ΔTm at 8 µM>
11.3

$$$$
>  <compound>
Cc1nc(CN2CC/C=C\c3cc4nc(N)c5cncn5c4cc3C2=O)ccc1C(F)(F)F

>  <unit_of_measure>
°C

>  <ΔTm at 8 µM>
11.6

$$$$

Data provenance: patent EP4818176A1
